test: Hypoxia cytotoxicity ratio (dose in air / hypoxia giving 99% of cell killing)
reported endpoint: Selectivity

Recorded results for 2 molecules are shown here.
COc1cc2c(cc1Cl)[n+]([O-])c(C#N)c(N)[n+]2[O-] : < 10
COc1ccc2c(c1)[n+]([O-])c(N)c(C#N)[n+]2[O-] : > 10

Attention now turns to another entry.
Inquiry: Query (molecule): N#Cc1c(N)[n+]([O-])c2cc(F)c(F)cc2[n+]1[O-] ; field requested: Selectivity
Reply text: < 10
